Biological target: EGFR (T790M/L858R) (Homo sapiens (Human), UniProt P00533, L858R/T790M)
Sequence (P00533 25-1210 T790M/L858R): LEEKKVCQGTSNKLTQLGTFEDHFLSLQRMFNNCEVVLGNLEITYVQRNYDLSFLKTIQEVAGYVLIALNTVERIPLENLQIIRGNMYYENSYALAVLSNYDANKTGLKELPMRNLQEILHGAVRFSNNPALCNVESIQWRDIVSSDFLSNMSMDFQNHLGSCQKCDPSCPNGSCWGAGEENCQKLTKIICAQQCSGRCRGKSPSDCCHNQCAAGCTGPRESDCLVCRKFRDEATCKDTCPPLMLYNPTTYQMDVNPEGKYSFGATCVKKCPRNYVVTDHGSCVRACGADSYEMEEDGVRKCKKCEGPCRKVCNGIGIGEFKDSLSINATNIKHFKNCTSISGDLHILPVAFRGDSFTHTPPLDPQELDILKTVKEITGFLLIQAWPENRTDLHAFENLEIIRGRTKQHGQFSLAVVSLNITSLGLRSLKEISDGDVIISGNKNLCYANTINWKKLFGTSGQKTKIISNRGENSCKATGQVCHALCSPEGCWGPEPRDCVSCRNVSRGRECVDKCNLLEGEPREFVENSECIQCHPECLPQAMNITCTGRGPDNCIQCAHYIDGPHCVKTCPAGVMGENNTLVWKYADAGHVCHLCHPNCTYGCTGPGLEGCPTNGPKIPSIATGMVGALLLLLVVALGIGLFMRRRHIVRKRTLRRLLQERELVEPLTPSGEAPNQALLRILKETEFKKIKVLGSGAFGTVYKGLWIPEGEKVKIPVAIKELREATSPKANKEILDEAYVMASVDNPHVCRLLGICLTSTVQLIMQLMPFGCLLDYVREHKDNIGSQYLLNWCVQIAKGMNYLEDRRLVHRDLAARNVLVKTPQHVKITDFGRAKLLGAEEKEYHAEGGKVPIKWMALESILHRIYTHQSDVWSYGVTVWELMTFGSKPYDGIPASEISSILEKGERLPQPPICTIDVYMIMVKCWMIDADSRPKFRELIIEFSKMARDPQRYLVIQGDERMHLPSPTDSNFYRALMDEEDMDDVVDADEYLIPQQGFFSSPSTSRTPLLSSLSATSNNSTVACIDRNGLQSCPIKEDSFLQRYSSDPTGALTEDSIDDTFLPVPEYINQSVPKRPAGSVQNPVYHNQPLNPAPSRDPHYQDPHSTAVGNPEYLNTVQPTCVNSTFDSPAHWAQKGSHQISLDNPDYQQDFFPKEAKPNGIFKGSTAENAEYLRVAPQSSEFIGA
Assay: In vitro EGFR (T790M/L858R) kinase binding assay (Kd, qPCR readout)
pKd: −log10 of the molar value.

compound	pKd
C=CC(=O)Nc1cccc(Nc2nc(Nc3ccc(N4CCN(CC)CC4)cc3)ncc2C(F)(F)F)c1 [Compound 9]	10.43
C=CC(=O)Nc1cccc(Nc2nc(Nc3ccc(N4CCN(C(C)=O)CC4)cc3)ncc2C(F)(F)F)c1 [Compound 8]	9.27
C=CC(=O)Nc1cccc(Nc2nc(Nc3ccc(N4CCN(CC)CC4)cc3OC)ncc2C(F)(F)F)c1 [Compound 10]	9.55
